Entries and their MIC90
System: Streptococcus pneumoniae
Experiment: In vitro antibacterial activity against Streptococcus pneumoniae
Format: functional
Numbers only here, please. The scale is µg/mL.

CC1(C)S[C@@H]2[C@H](NC(=O)[C@H](N)c3ccccc3)C(=O)N2[C@H]1C(=O)O.CC1(C)[C@H](C(=O)O)N2C(=O)C[C@H]2S1(=O)=O	0.03

Report MIC90 for CC1(C)S[C@@H]2[C@H](NC(=O)[C@H](N)c3ccc(O)cc3)C(=O)N2[C@H]1C(=O)O [AMOXICILLIN] please.
0.015

MIC90 lookup needed for C[C@@H](O)[C@H]1C(=O)N2C(C(=O)O)=C(SCCNC=N)C[C@H]12 [IMIPENEM ANHYDROUS] , thanks.
0.06

Consider the compound shown here: C[C@@H](O)[C@H]1C(=O)N2C(C(=O)O)=C(CN(C)CC(N)=O)SC12 (some centres undefined) What is its recorded MIC90?
0.06

----------
System: Pseudomonas aeruginosa
Test: In vitro antibacterial activity against Pseudomonas aeruginosa VR5
Format: functional
Measure Name: MIC

C[C@@H](O)[C@H]1C(=O)N2C(C(=O)O)=C(CN(C)CC(N)=O)SC12 (some centres not stated)	0.5 µg/mL
C[C@@H](O)[C@H]1C(=O)N2C(C(=O)O)=C(CSC(=S)N(C)CC(N)=O)SC12 (some centres not stated)	4 µg/mL
CCCCOC(=O)CN(C)CC1=C(C(=O)O)N2C(=O)[C@H]([C@@H](C)O)C2S1 (some centres not stated)	> 32 µg/mL
CC1(C)S[C@@H]2[C@H](NC(=O)[C@H](N)c3ccccc3)C(=O)N2[C@H]1C(=O)O.CC1(C)[C@H](C(=O)O)N2C(=O)C[C@H]2S1(=O)=O	0.12 µg/mL

Any idea what MIC was measured for `C[C@@H](O)[C@H]1C(=O)N2C(C(=O)O)=C(COC(N)=O)S[C@H]12` ?
0.5 µg/mL

Returns the measured MIC for the input compound. Input: C[C@@H](O)[C@H]1C(=O)N2C(C(=O)O)=C(SCCNC=N)C[C@H]12 [IMIPENEM ANHYDROUS]
0.25 µg/mL

Endpoint output: MIC of C[C@@H](O)[C@H]1C(=O)N2C(C(=O)O)=C(CN(C)CC(=O)N(C)C)SC12 (some centres not stated) . Value?
4 µg/mL

----------
Tested on: Enterococcus faecalis
Assay: In vitro antibacterial activity against Enterococcus faecalis ATCC 29212
Format: functional
# MIC listing for each entry below
Just the number in µg/mL, nothing appended.

Guide cases for MIC, answers given:
C[C@@H](O)[C@H]1C(=O)N2C(C(=O)O)=C(COC(N)=O)S[C@H]12	2
C[C@@H](O)[C@H]1C(=O)N2C(C(=O)O)=C(CN(C)CC(N)=O)SC12 (some centres not stated)	4
CCCCOC(=O)CN(C)CC1=C(C(=O)O)N2C(=O)[C@H]([C@@H](C)O)C2S1 (some centres not stated)	8
CC1(C)S[C@@H]2[C@H](NC(=O)[C@H](N)c3ccccc3)C(=O)N2[C@H]1C(=O)O.CC1(C)[C@H](C(=O)O)N2C(=O)C[C@H]2S1(=O)=O	1
C[C@@H](O)[C@H]1C(=O)N2C(C(=O)O)=C(CN(C)CC(=O)N(C)C)SC12 (some centres not stated)	8

Dear colleague, I am looking for the recorded MIC of the following compound: C[C@@H](O)[C@H]1C(=O)N2C(C(=O)O)=C(SCCNC=N)C[C@H]12 [IMIPENEM ANHYDROUS]
0.5

Quick one: MIC for C[C@@H](O)[C@H]1C(=O)N2C(C(=O)O)=C(CSC(=S)N(C)CC(N)=O)SC12 (some centres not stated) ?
8

----------
Test system: Escherichia coli
Assay: In vitro antibacterial activity against Escherichia. coli ATCC 25922
Assay type: functional
Measure Name: MIC (µg/mL)
Give the number; µg/mL is assumed, so skip it.

C[C@@H](O)[C@H]1C(=O)N2C(C(=O)O)=C(CSC(=S)N(C)CC(N)=O)SC12 (some centres undefined)	8
CC1(C)S[C@@H]2[C@H](NC(=O)[C@H](N)c3ccccc3)C(=O)N2[C@H]1C(=O)O.CC1(C)[C@H](C(=O)O)N2C(=O)C[C@H]2S1(=O)=O	8
C[C@@H](O)[C@H]1C(=O)N2C(C(=O)O)=C(SCCNC=N)C[C@H]12 [IMIPENEM ANHYDROUS]	0.12

Proceeding to the next molecule to report its MIC.
Report MIC for `C[C@@H](O)[C@H]1C(=O)N2C(C(=O)O)=C(COC(N)=O)S[C@H]12` tested on Escherichia coli.
0.5

----------
System: Streptococcus pyogenes
Test: In vitro antibacterial activity against Streptococcus pyogenes A
Format: functional
Measure Name: MIC90 (µg/mL)
Answer format: numeric, µg/mL implied, no suffix.

Here's what some known entries look like.
CC1(C)S[C@@H]2[C@H](NC(=O)[C@H](N)c3ccccc3)C(=O)N2[C@H]1C(=O)O.CC1(C)[C@H](C(=O)O)N2C(=O)C[C@H]2S1(=O)=O	0.03
CC1(C)S[C@@H]2[C@H](NC(=O)[C@H](N)c3ccc(O)cc3)C(=O)N2[C@H]1C(=O)O	0.015
C[C@@H](O)[C@H]1C(=O)N2C(C(=O)O)=C(SCCNC=N)C[C@H]12 [IMIPENEM ANHYDROUS]	0.06

Can you share its MIC90? I mean this compound: C[C@@H](O)[C@H]1C(=O)N2C(C(=O)O)=C(CN(C)CC(N)=O)SC12 (some centres undefined)
0.06

----------
Recorded MIC90 values for a group of compounds are listed next.
Test system: Haemophilus influenzae
Assay: In vitro antibacterial activity against Haemophilus influenzae
Assay type: functional
Please append the unit to your numeric answer.

The following compounds have reported results that may help.
C[C@@H](O)[C@H]1C(=O)N2C(C(=O)O)=C(SCCNC=N)C[C@H]12 [IMIPENEM ANHYDROUS]	1 µg/mL
C[C@@H](O)[C@H]1C(=O)N2C(C(=O)O)=C(CN(C)CC(N)=O)SC12 (some centres undefined)	2 µg/mL

# query: MIC90 of entry `CC1(C)S[C@@H]2[C@H](NC(=O)[C@H](N)c3ccc(O)cc3)C(=O)N2[C@H]1C(=O)O`
1 µg/mL

Would you kindly share the measured MIC90 for `CC1(C)S[C@@H]2[C@H](NC(=O)[C@H](N)c3ccccc3)C(=O)N2[C@H]1C(=O)O.CC1(C)[C@H](C(=O)O)N2C(=O)C[C@H]2S1(=O)=O` ?
1 µg/mL

----------
Tested on: Escherichia coli
Experiment: In vitro antibacterial activity against Escherichia. coli TEM2
Assay type: functional
Measure Name: MIC (µg/mL)
Give the value in µg/mL but do not write µg/mL after it.

// below: answered compounds
C[C@@H](O)[C@H]1C(=O)N2C(C(=O)O)=C(SCCNC=N)C[C@H]12 [IMIPENEM ANHYDROUS]	0.25
C[C@@H](O)[C@H]1C(=O)N2C(C(=O)O)=C(CN(C)CC(N)=O)SC12 (some centres not stated)	0.5
C[C@@H](O)[C@H]1C(=O)N2C(C(=O)O)=C(COC(N)=O)S[C@H]12 [RITIPENEM]	1
C[C@@H](O)[C@H]1C(=O)N2C(C(=O)O)=C(CN(C)CC(=O)N(C)C)SC12 (some centres not stated)	1
CC1(C)S[C@@H]2[C@H](NC(=O)[C@H](N)c3ccccc3)C(=O)N2[C@H]1C(=O)O.CC1(C)[C@H](C(=O)O)N2C(=O)C[C@H]2S1(=O)=O	8

Consider the record given below.
Tell me the measured MIC of C[C@@H](O)[C@H]1C(=O)N2C(C(=O)O)=C(CSC(=S)N(C)CC(N)=O)SC12 (some centres not stated) , please.
8

----------
Test system: Moraxella catarrhalis
Experiment: In vitro antibacterial activity against Branhamella catarrhalis
Format: functional
Measure Name: MIC90 (µg/mL)
Write the number in µg/mL without appending the unit.

// solved cases for MIC90 follow
CC1(C)S[C@@H]2[C@H](NC(=O)[C@H](N)c3ccccc3)C(=O)N2[C@H]1C(=O)O.CC1(C)[C@H](C(=O)O)N2C(=O)C[C@H]2S1(=O)=O	0.5
C[C@@H](O)[C@H]1C(=O)N2C(C(=O)O)=C(CN(C)CC(N)=O)SC12 (some centres undefined)	0.25
C[C@@H](O)[C@H]1C(=O)N2C(C(=O)O)=C(SCCNC=N)C[C@H]12 [IMIPENEM ANHYDROUS]	0.03

Recorded MIC90 of `CC1(C)S[C@@H]2[C@H](NC(=O)[C@H](N)c3ccc(O)cc3)C(=O)N2[C@H]1C(=O)O` , please.
2

----------
Tested on: Escherichia coli
Test: In vitro antibacterial activity against Escherichia. coli ATCC 25922
Type: functional
Measure Name: MIC (µg/mL)
Dear colleague, please return just the value in µg/mL, with no unit written.

C[C@@H](O)[C@H]1C(=O)N2C(C(=O)O)=C(CN(C)CC(N)=O)SC12 (stereo partly drawn)	0.25
C[C@@H](O)[C@H]1C(=O)N2C(C(=O)O)=C(CN(C)CC(=O)N(C)C)SC12 (stereo partly drawn)	0.5

Lab note: next compound to report on.
State the recorded MIC for this entry: CCCCOC(=O)CN(C)CC1=C(C(=O)O)N2C(=O)[C@H]([C@@H](C)O)C2S1 (stereo partly drawn)
32
